These entries and their values trace back to paper PMC6811792.

- assay-system: yam tyrosinase
- experimental-protocol: SPR interaction kinetics of single analytes with immobilized yam tyrosinase, two-state model
- Type: binding, Amorphophallus paeoniifolius
- experimental-setup: PBS pH 7.4
Please provide measured pKd for the entries that follow.
# pKd = -log10(concentration in molar units)

For the molecule shown here, CC(/C=C/C=C(\C)C(=O)O[C@@H]1O[C@H](CO[C@@H]2O[C@H](CO)[C@@H](O)[C@H](O)[C@H]2O)[C@@H](O)[C@H](O)[C@H]1O)=C\C=C\C=C(C)\C=C\C=C(/C)C(=O)O[C@@H]1O[C@H](CO[C@@H]2O[C@H](CO)[C@@H](O)[C@H](O)[C@H]2O)[C@@H](O)[C@H](O)[C@H]1O [Crocin, crocin] , give the reported pKd.
2.78

For the molecule shown here, O=c1cc(CO)occ1O [Kojic acid] , give the reported pKd.
5.19
